- Test Summary: Cytotoxicity against HEK293 cells after 48 hrs by MTT assay
- Assay type: cell-based
- Setup Conditions: human, read-out: MIC
Outcome Measure: MCC at 48 h

- Smi: "COc1ccc(C(=O)CN2C(=O)/C(=C\\c3cccc(Cl)c3)SC2=S)cc1"
  MCC at 48 h: "> 200 µM"
- Smi: "COc1ccc(C(=O)CN2C(=O)/C(=C\\c3cc(OC)c(OC)c(OC)c3)SC2=S)cc1"
  MCC at 48 h: "> 200 µM"

# input for lookup
For this molecule ( COc1cc(/C=C2/SC(=S)N(CC(=O)c3ccccc3)C2=O)cc(OC)c1OC ), measured MCC at 48 h is > 200 µM
